Biological target: GOPC, Q9HD26
Assay: holdup assay
Design: key: below the threshold = too weak to quantify, mostly under pKd 3.1 to 4
Details: plain residues with an end cap or a label only (N-terminal biotin on a linker: ado-ado)
measurement_type: pKd

Example binders with recorded pKd:
NIAESLESLV [PTPRZ1, P23471]; below the threshold
ILRKSTTTTV [PRR16, Q569H4]; 3.92
DGVNEKVSCV [HTR2A, P28223]; below the threshold
GTGYDRKDYV [CLDN3, O15551]; below the threshold
DTKNYKQTSV [CRIPT, Q9P021]; 3.87

Exercise: Complete the entry with pKd for SRSVVESDEL [MYPN, Q86TC9]
Solution: below the threshold

Exercise: Give the reported value of pKd for this record: SLNANEVEWF [RNF130, Q86XS8]
Solution: below the threshold

Exercise: Please list pKd recorded for the binder KKMLQRRTLL [OR8G1, Q15617]
Solution: 3.89
